TGT: T1, Recombinant P-selectin (R&D Systems) (human, UniProt P16109 42-771)
T1 construct: extracellular domain; also called recombinant human P-selectin; recombinant truncated form of P-selectin
T1 sequence (looked up): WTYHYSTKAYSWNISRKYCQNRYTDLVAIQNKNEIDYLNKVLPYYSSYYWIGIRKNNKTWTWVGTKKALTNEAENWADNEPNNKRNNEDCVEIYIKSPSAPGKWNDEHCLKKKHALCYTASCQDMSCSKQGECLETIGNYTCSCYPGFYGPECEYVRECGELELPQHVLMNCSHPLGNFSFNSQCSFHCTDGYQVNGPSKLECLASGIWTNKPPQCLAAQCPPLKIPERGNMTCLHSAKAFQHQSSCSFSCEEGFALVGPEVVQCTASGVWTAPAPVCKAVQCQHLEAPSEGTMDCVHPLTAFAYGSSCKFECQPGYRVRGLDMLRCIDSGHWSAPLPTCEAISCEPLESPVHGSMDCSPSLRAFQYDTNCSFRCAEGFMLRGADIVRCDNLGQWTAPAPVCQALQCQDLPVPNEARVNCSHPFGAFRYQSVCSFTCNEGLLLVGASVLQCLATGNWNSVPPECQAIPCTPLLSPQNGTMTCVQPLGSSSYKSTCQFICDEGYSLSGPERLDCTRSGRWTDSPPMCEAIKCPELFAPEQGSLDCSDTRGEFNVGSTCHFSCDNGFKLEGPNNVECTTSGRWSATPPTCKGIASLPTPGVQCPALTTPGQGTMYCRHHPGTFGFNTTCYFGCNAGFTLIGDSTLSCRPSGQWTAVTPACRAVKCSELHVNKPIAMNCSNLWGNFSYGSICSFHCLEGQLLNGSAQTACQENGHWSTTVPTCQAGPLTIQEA
EXPERIMENTAL_DETAILS: SPR, BIACORE 2000; antibody captured by anti-human Fcγ, recombinant P-selectin 0-50 nM injected; 1:1 Langmuir fit
Reported koff is given for each of the following binders.
Expressed in s⁻¹, but write only the number.

BINDER	koff [s⁻¹]
HuMab 017 (antibody of cell line hu-Mab<P-selectin>LC 1004-017, DSM ACC2642) (antibody, V domains shown, Human monoclonal antibody; also called antibody 017) VH: QPQLVQSGAEVKKPGASVKVSCKVSGNTLTELSMHWVRQAPGKGLEWMGGFDPENGEAIYAQKFQGRVTMTADTSTDTAYMDLSSLRSEDTAVYYCATDLAGGSDFYYYGLDVWGQGTTVTVSS VL: AIQLTQSPSSLSASVGDRVTITCRASQGISSALAWYQQKPGKAPKLLIYDASSLESGVPSRFSGSGSGTDFTLTISSLQPEDFATYYCQQFNSYPYTFGQGTKLEIK	1.39e-05
HuMab 003 (antibody, V domains shown, Human monoclonal antibody; also called antibody 003; LC 1004-003) VH: QVQLVESGGGVVQPGRSLRLSCAASGFTFSSYGMHWVRQAPGEGLEWVAVIWYDGTFKYYADSVKGRFTISRDNSKNTLSLLMNSLRAEDTAVYYCTRGGYYGSGSSFDYYYYGMDVWGQGTTVTVSS VL: DIQMTQSPSSLSASVGDRVTITCRASQGISSWLAWYQQKPEKAPKSLIYAASSLQSGVPSRFSGSGSGTDFTLTISSLQPEDFATYYCQQYHSYPLTFGGGTKVEIK	0.000291
HuMab 001 (antibody of cell line hu-Mab<P-selectin>LC 1004-001, DSM ACC2640) (antibody, V domains shown, Human monoclonal antibody from transgenic mice; kappa light and gamma1 heavy chains by the cloning section; also called antibody 001; HuMab 1004-001) VH: EVQLVESGGGLVQPGGSLRLSCAASGFTFSSYDMHWVRQATGKGLEWVSGITTAGDTYYPGSVKGRFTISRENAKNSLYLQMNSLRAGDTAVYYCARGRISMDRGVKNNWFDPWGQGTLVTVSS VL: EIVLTQSPATLSLSPGERATLSCRASQSVSSYLAWYQQKPGQAPRLLIYDASNRATGIPARFSGSGSGTDFTLTISSLEPEDFAVYYCQQRNNWPLTFGGGTKVEIK	0.000419

Let us move to another entry and its koff.
koff recorded for this binder, HuMab 005 (antibody, V domains shown, Human monoclonal antibody; also called antibody 005) VH: QVQLVESGGGVVQPGRSLRLSCAASGFTFSSYGMHWVRQAPGEGLEWVAVIWYDGTFKYYADSVKGRFTISRDNSKNTLSLLMNSLRAEDTAVYYCTRGGYYGSGSSFDYYYYGMDVWGQGTTVTVSS VL: EIVLTQSPATLSLSPGERATLSCRASQSVSSYLAWYQQKPGQAPRLLIYDASNRATGIPARFSGSGSGTDFTLTISSLEPEDFAVYYCQQRSNWPPVTFGQGTRLEIK , is 0.000289
